# Tested on: HEK-293T
# protocol.description: Multiplex assay against HEK293T
# Assay type: toxicity, cell-based
# condition.parameters: human, 12 h, 1 µM, compound concentration 1 uM, replicate 1
endpoint.name: Population Hoechst High Intensity Objects (%)
Quick reminder: number only, in %, skip the unit.

Task: Which Population Hoechst High Intensity Objects (%) is listed for `N[C@](CC1c2ccccc2Oc2ccccc21)(C(=O)O)[C@H]1C[C@@H]1C(=O)O` ?
Output: 7

Task: Given the compound `COc1cc(C(=O)N2CC[C@@H](O)[C@@H](N)C2)cc2nc(-c3cc4ccccc4n3CC3CC3)n(C)c12.Cl` , what is its reported Population Hoechst High Intensity Objects (%)?
Output: 10

Task: Can you share its Population Hoechst High Intensity Objects (%)? I mean this compound: `CN1CCN(c2ccc(Nc3c4ccccc4nc4ccccc34)cc2)CC1.Cl.Cl.O`
Output: 3

Task: I would be grateful if you could share the reported Population Hoechst High Intensity Objects (%) for CN1CCN2c3ccccc3Cc3ccccc3C2C1.Cl (centres undefined) [MIANSERIN HYDROCHLORIDE] .
Output: 5

* * *

# System: U2OS
# protocol.description: Multiplex assay against U2OS
# Type: toxicity, cell-based
# condition.parameters: human, 12 h, 1 µM, compound concentration 1 uM, replicate 2
Non-standard residues stand in square brackets, D forms with d. Residues, ends and D or L forms follow the SMILES beside them.
Exercise: for every item that follows, state its recorded Population Membrane Permeable-Phenotype (%).
API: value field is a number in %; no unit string.

Task: Item O=C(NCCNCC(O)COc1ccc(O)cc1)N1CCOCC1.O=C(NCCNCC(O)COc1ccc(O)cc1)N1CCOCC1.O=C(O)/C=C/C(=O)O (stereo not given) [XAMOTEROL FUMARATE] with U2OS - Population Membrane Permeable-Phenotype (%)?
Output: 13

Task: Give recorded Population Membrane Permeable-Phenotype (%) with U2OS for the following compound: O=c1ccc2ccc(OCCCCN3CCN(c4cccc5sccc45)CC3)cc2[nH]1 [BREXPIPRAZOLE]
Output: 32

Task: Short answer please: Population Membrane Permeable-Phenotype (%), U2OS, entry `O=C(Nc1cc(-c2ccccc2)nn1-c1ccccc1F)c1ccc([N+](=O)[O-])cc1`
Output: 9

Task: Item `CN1CCC(C(=O)c2cccc(NC(=O)c3c(F)cc(F)cc3F)n2)CC1` with U2OS - Population Membrane Permeable-Phenotype (%)?
Output: 9

Task: Under U2OS: Population Membrane Permeable-Phenotype (%) value of C=CCN1C[C@H](C(=O)N(CCCN(C)C)C(=O)NCC)C[C@@H]2c3cccc4[nH]cc(c34)C[C@H]21 [CABERGOLINE] ?
Output: 8

Task: Record CC(C)C[C@@H]1NC(=O)[C@@H](C(C)C)NC(=O)[C@@H]2CCCN2C(=O)[C@@H](CC(=O)O)NC(=O)[C@@H](Cc2c[nH]c3ccccc23)NC1=O [BQ-123] (cyclo(L[dW][dD]P[dV])) : what is its Population Membrane Permeable-Phenotype (%) with U2OS?
Output: 2

Task: Requested read-out Population Membrane Permeable-Phenotype (%), target or system U2OS, entry COc1cc2nc(N3CCN(C(=O)c4ccco4)CC3)nc(N)c2cc1OC.Cl [PRAZOSIN HYDROCHLORIDE]
Output: 5

Task: Param readout = Population Membrane Permeable-Phenotype (%); param system = U2OS; param query = Cc1cc(-c2ccc3c(c2)CC[C@H]3N2CC3(CCN(C(=O)Cc4cn5cc(C)sc5n4)CC3)C2)ncn1 [PF-5190457] ; response: value
Output: 4

Task: Please state recorded Population Membrane Permeable-Phenotype (%) (tested on U2OS) of `C[C@H](NC(=O)CNC(=O)c1cccc(Cl)c1)c1ccccc1`
Output: 8

Task: Request: Population Membrane Permeable-Phenotype (%), test system U2OS, entry CN1C[C@H](C(=O)N[C@]2(C)O[C@@]3(O)[C@@H]4CCCN4C(=O)[C@H](Cc4ccccc4)N3C2=O)C[C@@H]2c3cccc4[nH]cc(c34)C[C@H]21.CS(=O)(=O)O [DIHYDROERGOTAMINE MESYLATE]
Output: 14

Task: Identify the measured Population Membrane Permeable-Phenotype (%) of COC(c1ccccc1)(c1ccccc1)[C@H](Oc1nc(C)cc(C)n1)C(=O)O [AMBRISENTAN] for U2OS.
Output: 8

Task: API: value(readout=Population Membrane Permeable-Phenotype (%), system=U2OS) for record CN1CCN2c3ccccc3Cc3ccccc3C2C1.Cl (stereo not given) [MIANSERIN HYDROCHLORIDE]
Output: 3

Task: Lookup: Population Membrane Permeable-Phenotype (%) / U2OS / `C[C@@H]1CC(=O)Nc2cccc(-c3ccc4c(c3)c(-c3cnn(C)c3)nn4C)c2N1`
Output: 5

Task: Enter reported Population Membrane Permeable-Phenotype (%) observed with U2OS for COCCCN1CCC(NC(=O)c2cc(Cl)c(N)c3c2OCC3)CC1 [PRUCALOPRIDE]
Output: 12

Task: Kindly state the measured Population Membrane Permeable-Phenotype (%) obtained for Cc1c(Cc2ccc3ccccc3n2)c2cc(F)ccc2n1CC(=O)O [TIMAPIPRANT] with U2OS.
Output: 4
